B1: SCARA5 (parent)
chain: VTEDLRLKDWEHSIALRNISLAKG

Variants of: B1
PROTOCOL: protein stability index of a GFP-peptide fusion (GPS, HEK-293T) (PSI 1-6); higher = more stable;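 also: lentivirally expressed fusions sorted by FACS into six bins by GFP to DsRed ratio, PSI derived from sequencing read proportions per bin multiplied by bin number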
TEST_CONDITIONS: c terminus: a fixed tail appended
Reported protein stability index values are given for each entry in this list.
Answer as a number with no unit attached.

- VTEDLRAKDWEHSIALRNISLAKG [L7A]: 3.35
- VTEDLRLKDWEHSIALRNISLAGG [K23G]: 3.14
- VTEDLRLKWWEHSIALRNISLAKG [D9W]: 2.22
- VTEDLRLKDWEHSIFLRNISLAKG [A15F]: 2.86
- VTEDLRLMDWEHSIALRNISLAKG [K8M]: 2.77
- VTEDLPLKDWEHSIALRNISLAKG [R6P]: 3.26
- VTEDLRLKDWEHSIALRNIILAKG [S20I]: 2.15
- VTEDLRLKDWEHSIDLRNISLAKG [A15D]: 4.2

**Query** Provide one value: measured protein stability index of VTEDLRLKDWEKSIALRNISLAKG [H12K]
**Result** 3.61

**Query** Provide one value: measured protein stability index of VTEDLRLKDMEHSIALRNISLAKG [W10M]
**Result** 3.67

**Query** Provide one value: measured protein stability index of VTENLRLKDWEHSIALRNISLAKG [D4N]
**Result** 3.33
